Every entry's value here was drawn from PubChem BioAssay (NCI).

- Test system: SN12C renal
- assay summary: NCI tumour cell line growth inhibition, 48 h
I'd be grateful if you could share measured TGI for these entries.

[in] For Cc1ccc(C(=O)OC(C)C)cc1N=NN(C)C , what is its reported TGI?
[out] > 100 µM

[in] For COc1ccc(OC)c(/C=C/C(=O)C(C)(C)C)c1 , what is its reported TGI?
[out] 45.4 µM

[in] For c1ccc(CCCC2Sc3cccc4cccc(c34)S2)cc1 , what is its reported TGI?
[out] > 100 µM

[in] For COc1cc2cn3c4ccc(O)cc4nc(N)c3c2cc1OC , what is its reported TGI?
[out] 13 µM

[in] For O=c1c2cc(Br)ccc2nc(-c2ccccc2)n1NCC1(O)OCC(O)C(O)C1O (configuration not stated) , what is its reported TGI?
[out] > 100 µM

[in] For Cc1cc(C(=O)N[C@@H](CCC(=O)O)C(=O)O)sc1CC[C@@H]1CNc2nc(N)[nH]c(=O)c2C1 , what is its reported TGI?
[out] > 100 µM

[in] For CCOC(=O)CCC(NC(=O)c1ccc(Nc2cnc3cc(C(F)(F)F)ccc3n2)cc1)C(=O)OCC (configuration not stated) , what is its reported TGI?
[out] > 100 µM

[in] For CCOC(=O)CCSS(=O)(=O)C(F)(F)F , what is its reported TGI?
[out] > 100 µM

[in] For CC(=O)OCC1OC(O[C@@H]2C[C@H]3C(C)(C)[C@H](OC(C)=O)CC[C@]3(C)[C@H]3CC[C@]4(C)C(=CC[C@H]4[C@@H](C)C[C@@H](O)[C@H](O)C(C)(C)O)[C@@]32C)C(O)C(O)C1O (some centres not stated) , what is its reported TGI?
[out] 31.7 µM

[in] For C[n+]1c2ccccc2c(C(=O)NC(CCCN=C(N)N)C(=O)O)c2ccccc21 (configuration not stated) , what is its reported TGI?
[out] > 100 µM

[in] For O=C(C[C@@]1(O)C(=O)Nc2c(Cl)ccc(Cl)c21)c1ccc(C2CC2)cc1 , what is its reported TGI?
[out] 17.7 µM

[in] For O=C1N[C@H]2C(=O)c3c(Cl)sc(Cl)c3[C@H]2O1 , what is its reported TGI?
[out] 30.3 µM

[in] For CC(C)[C@](O)(C(=O)OCC1=CC[N+]2([O-])CC[C@@H](O)[C@@H]12)[C@H](C)O (some centres not stated) , what is its reported TGI?
[out] > 10000 µM

[in] For CCCCNC(=O)OCC(COc1ccccc1OC)OC(=O)NCCCC (configuration not stated) , what is its reported TGI?
[out] > 100 µM

[in] For CC1(C(=O)NCCN(CCNC(=O)C2(C)CC3(C)CC(C)(C2)C(=O)NC3=O)CCNC(=O)C2(C)CC3(C)CC(C)(C2)C(=O)NC3=O)CC2(C)CC(C)(C1)C(=O)NC2=O (configuration not stated) , what is its reported TGI?
[out] > 100 µM

[in] For O=C1NC2(CCCC2)/C(=N\O)C12CCCC2 , what is its reported TGI?
[out] > 100 µM

[in] For NCCn1ccc(NC(c2ccccc2)(c2ccccc2)c2ccccc2)nc1=O , what is its reported TGI?
[out] 42.3 µM

[in] For C/C=C/C(=O)[C@@H](O)C(C)C , what is its reported TGI?
[out] > 100 µM

[in] For COc1cc(-c2cc(-c3nc4cc(Cl)c(Cl)cc4[nH]3)[nH]n2)cc(OC)c1OC , what is its reported TGI?
[out] 13.4 µM

[in] For O=Nc1ccc(O)c2ncccc12 , what is its reported TGI?
[out] 25.2 µM

[in] For CCOc1ncn(-c2ccc(NC(=S)Nc3cnccn3)cc2)n1 , what is its reported TGI?
[out] > 10 µM

[in] For Fc1c[c-]c(-c2ccccn2)c(F)c1.[CH3-].[Pt+2].c1ccc([PH+](c2ccccc2)c2ccccn2)cc1 , what is its reported TGI?
[out] 4.24 µM

[in] For Cc1ccc(Nc2[nH]c(C(=O)c3ccc(Cl)cc3)c(N)c2C(=S)Nc2ccccc2)nc1 , what is its reported TGI?
[out] 37.9 µM

[in] For COc1ccc2c(c1)CC[C@@H]1[C@@H]2CC[C@]2(C)c3[nH]ncc3C[C@@H]12 , what is its reported TGI?
[out] > 50 µM

[in] For COc1ccc([C@@H]2CC(=O)NCCCNCCCCNCCCN2)cc1 , what is its reported TGI?
[out] > 100 µM

[in] For Cc1ccc(P(c2ccc(C)cc2)c2ccc(C)cc2)cc1 , what is its reported TGI?
[out] 34.3 µM

[in] For COc1cccc(CCn2c(N)c(C(=O)O)c3ccc([N+](=O)[O-])cc3c2=O)c1 , what is its reported TGI?
[out] > 100 µM

[in] For Cc1coc2c1CC1OC1(C)CCC1OC1(C)C2 (configuration not stated) , what is its reported TGI?
[out] > 100 µM

[in] For COCOc1cc(OC)c(Br)cc1C/C(=N/O)C(=O)OC , what is its reported TGI?
[out] > 100 µM

[in] For FC(F)(F)c1[nH]ncc1-c1nc2c(N3CCCCC3)cc3[nH]ncc3c2c2c1CCCC2 , what is its reported TGI?
[out] > 15.7 µM

[in] For CCN(CC)CCOc1ccc(N2Cc3ccccc3C2=O)cc1 , what is its reported TGI?
[out] > 10 µM

[in] For CSC1=C(C#N)C(=O)N(c2ccc(Cl)cc2)C(=O)C1C#N (configuration not stated) , what is its reported TGI?
[out] > 100 µM

----------
- Test system: NCI-H23 lung
- assay summary: NCI tumour cell line growth inhibition, 48 h
reported endpoint: GI50

[in] For C[C@@H]1[C@H]2[C@H](C=C3[C@@H]4CC[C@H]5Cc6nc7c(nc6C[C@]5(C)[C@H]4C[C@@H](O)[C@@]32C)C[C@@H]2CC[C@H]3C4=C[C@@H]5O[C@@]6(CC[C@](C)(CO)O6)[C@@H](C)[C@@]5(O)[C@@]4(C)[C@H](O)C[C@@H]3[C@@]2(C)C7)O[C@]12CCC(C)(C)O2 , what is its reported GI50?
[out] 1.61 µM

[in] For CN(C)CCN1C(=O)c2cccc3c(N)ccc(c23)C1=O , what is its reported GI50?
[out] 15 µM

[in] For NC(=O)c1ccc2nc(-c3ccc(C4(N)CCC4)cc3)c(-c3ccccc3)n2n1 , what is its reported GI50?
[out] 16.4 µM

----------
- System: CAKI-1 renal
- assay summary: NCI tumour cell line growth inhibition, 48 h
reported endpoint: TGI

[in] For Cc1nc2c(=O)n(C)c(=O)nc-2n(CCO)c1C , what is its reported TGI?
[out] > 100 µM

[in] For COc1cc([N+](=O)[O-])c(S(=O)(=O)O)cc1N , what is its reported TGI?
[out] > 100 µM

[in] For COc1ccc2c(c1)C(=O)c1c-2c(OCCN(C)C)nc2cc(OC)ccc12 , what is its reported TGI?
[out] 11.1 µM

[in] For COc1cc(/C=C2\CCCC3C2=Nc2ccccc2NC3c2cc(OC)c(OC)c(OC)c2)cc(OC)c1OC (stereo unspecified) , what is its reported TGI?
[out] > 100 µM

[in] For Cc1ccc(/C=N/NS(=O)(=O)c2ccccc2)cc1 , what is its reported TGI?
[out] > 100 µM

[in] For CC(C)(O)/C=C\P(C)(=O)c1ccccc1 (stereo unspecified) , what is its reported TGI?
[out] > 100 µM

[in] For N.N.N.N.N.N#N.[Cl-].[Os+7] , what is its reported TGI?
[out] > 100 µM

[in] For COC(=O)c1ccc(/C=C2\Cc3ccccc3C2=O)cc1 , what is its reported TGI?
[out] > 100 µM

[in] For CN(C)Cc1cc(C(=O)/C=C/c2ccc(Br)cc2)cc(CN(C)C)c1O , what is its reported TGI?
[out] 6.34 µM

[in] For O=S(=O)(O)c1cc(N=Nc2cc(S(=O)(=O)O)c3ccccc3c2O)ccc1/C=C/c1ccc(N=Nc2cc(S(=O)(=O)O)c3ccccc3c2O)cc1S(=O)(=O)O , what is its reported TGI?
[out] > 756 µM

[in] For COc1ccc2[nH]c3c([N+](=O)[O-])ccc(Cl)c3c(=O)c2c1 , what is its reported TGI?
[out] 49.5 µM

[in] For CN1CCC(C(=O)NNc2ccccc2)CC1 , what is its reported TGI?
[out] > 100 µM

[in] For COc1cc(-c2nc3ccccc3[nH]2)ccc1OCC(=O)N=Nc1c(O)[nH]c2ccc(Cl)cc12 , what is its reported TGI?
[out] 3.55 µM

[in] For COc1cc(OC)cc(-c2ccc(-c3ccc(C(=N)N)s3)s2)c1 , what is its reported TGI?
[out] 2.78 µM

[in] For COc1ccc2c(c1)CCC(CN1CCN(CCOC(c3ccc(F)cc3)c3ccc(F)cc3)CC1)C2O (stereo unspecified) , what is its reported TGI?
[out] 32 µM

[in] For O=C1OCC2=C1C(c1cccc(C(F)(F)F)c1)c1cc3c(cc1N2CCO)OCO3 (stereo unspecified) , what is its reported TGI?
[out] > 50 µM
